Target: hGLP-1R (Homo sapiens, UniProt P43220)
Sequence (P43220 24-463): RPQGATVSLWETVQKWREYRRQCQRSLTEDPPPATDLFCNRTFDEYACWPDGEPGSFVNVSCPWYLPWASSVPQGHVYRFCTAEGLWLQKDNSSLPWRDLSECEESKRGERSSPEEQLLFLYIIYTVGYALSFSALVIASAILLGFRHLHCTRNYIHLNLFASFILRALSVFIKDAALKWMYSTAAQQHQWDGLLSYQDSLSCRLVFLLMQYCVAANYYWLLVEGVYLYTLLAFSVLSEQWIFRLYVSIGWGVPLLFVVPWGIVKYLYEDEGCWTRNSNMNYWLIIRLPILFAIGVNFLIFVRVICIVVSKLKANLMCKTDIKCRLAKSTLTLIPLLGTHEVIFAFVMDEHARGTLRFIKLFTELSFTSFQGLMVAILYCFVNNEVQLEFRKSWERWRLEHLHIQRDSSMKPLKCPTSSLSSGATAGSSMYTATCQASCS
Sequence (P32121 whole entry partner): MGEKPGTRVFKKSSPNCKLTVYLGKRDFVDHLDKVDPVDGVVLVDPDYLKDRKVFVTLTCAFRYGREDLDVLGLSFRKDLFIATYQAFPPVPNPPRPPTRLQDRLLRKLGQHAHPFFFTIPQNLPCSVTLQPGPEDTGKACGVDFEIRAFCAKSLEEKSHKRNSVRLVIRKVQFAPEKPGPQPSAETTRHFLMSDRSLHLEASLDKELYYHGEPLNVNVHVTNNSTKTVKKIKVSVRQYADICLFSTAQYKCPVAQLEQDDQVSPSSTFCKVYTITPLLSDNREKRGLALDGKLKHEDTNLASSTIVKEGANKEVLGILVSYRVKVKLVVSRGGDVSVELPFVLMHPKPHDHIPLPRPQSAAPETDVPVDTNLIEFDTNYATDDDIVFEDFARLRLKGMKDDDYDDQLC
Test: GLP-1R CHO cell β-arrestin recruitment assay;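 note: luminescence read after 90 min peptide exposure at 37 °C and a further 60 min with detection reagent at room temperature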
Type: cell-based
Set-up: host or cells: CHO-K1 (PathHunter, assay-ready frozen cells)
Details: normalized to GLP-1(7-36) as maximum control
Starred links: 1 amine or outer side, 2 acyl side, 3 side chain; linkers in the order of their positions; H or OH if unused. Non-standard residues stand in square brackets, D forms with d. Groups on a side chain read outwards from the residue. *: point of attachment. C20 diacid = O=C(O)CCCCCCCCCCCCCCCCCCC(=O)*; αMePhe(2-F) = C[C@](N)(Cc1ccccc1F)C(=O)O; γGlu = O=C(O)[C@H](CCC(=O)[*:2])N[*:1]; NMeY = CN[C@@H](Cc1ccc(O)cc1)C(=O)O; αMeF = C[C@](N)(Cc1ccccc1)C(=O)O; αMeL = CC(C)C[C@](C)(N)C(=O)O; Orn = NCCC[C@H](N)C(=O)O; AEEA = NCCOCCOCC(=O)O; Aib = CC(C)(N)C(=O)O
Please use satisfied for % Stimulation Max under 50% and not satisfied for everything else, ties included.

substance	assigned.category
H-H[Aib]QGT[αMePhe(2-F)]TSDYSILLDKK([AEEA-γGlu-C20 diacid])AA[Aib]AFIEYLIETGPSSGEPPPSEG-NH2 [Example 290]	not satisfied
H-Y[Aib]QGT[αMePhe(2-F)]TSDYSILLDKIAQK([AEEA-γGlu-C20 diacid])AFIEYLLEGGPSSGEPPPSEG-NH2 [Example 293]	not satisfied
H-Y[Aib]QGTFTSDYSI[αMeL]LDKIAAK([AEEA-AEEA-γGlu-C20 diacid])[Orn]FVQYLIAGGPSSGEPPPSEG-NH2 [Example 308]	satisfied
H-Y[Aib]QGTFTSDYSI[αMeL]LDKK([AEEA-γGlu-C20 diacid])AQRAFIEYLLEGGPSSGEPPPSEG-NH2 [Example 289]	satisfied
H-Y[Aib]QGT[αMePhe(2-F)]TSDYSKILDKIAQK([AEEA-γGlu-C20 diacid])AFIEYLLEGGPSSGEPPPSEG-NH2 [Example 311]	satisfied

As a next step, examine the substance that follows.
Here's an entry: H-[NMeY][Aib]QGT[αMeF]TSDYSILLDKQAAK([AEEA-AEEA-γGlu-C20 diacid])AFVQWLIEGGPSSGEPPPSEG-NH2 [Example 302] . Is its % Stimulation Max below 50%?
not satisfied
